Numbers sourced from paper PMC11162409.

target: Bacillus amyloliquefaciens alpha-amylase (BAA) (Bacillus amyloliquefaciens)
Sequence (P00692 32-514): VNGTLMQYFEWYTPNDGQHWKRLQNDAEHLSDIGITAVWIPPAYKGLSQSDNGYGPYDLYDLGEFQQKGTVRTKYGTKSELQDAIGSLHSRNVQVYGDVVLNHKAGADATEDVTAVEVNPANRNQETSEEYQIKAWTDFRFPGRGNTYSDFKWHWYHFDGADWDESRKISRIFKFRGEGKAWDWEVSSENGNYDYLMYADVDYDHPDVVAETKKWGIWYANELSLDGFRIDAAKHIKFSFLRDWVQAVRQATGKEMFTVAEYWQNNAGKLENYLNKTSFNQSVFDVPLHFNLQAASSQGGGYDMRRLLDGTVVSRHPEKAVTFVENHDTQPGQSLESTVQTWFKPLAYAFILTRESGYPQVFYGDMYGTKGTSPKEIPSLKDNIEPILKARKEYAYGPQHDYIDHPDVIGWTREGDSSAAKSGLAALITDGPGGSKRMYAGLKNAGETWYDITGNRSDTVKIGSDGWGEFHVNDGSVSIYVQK
readout name: IC50

Request: Missing value: IC50, Bacillus amyloliquefaciens alpha-amylase (BAA) (Bacillus amyloliquefaciens), entry `N[C@@H](Cc1ccc(O)cc1)C(=O)O` . Fill in?
Response: ~100 mM
